- Target System: T1, huNav1.7α + β1-β2-β3 (human, UniProt Q15858 1-1988; A5A6L6 19-218; O60939 30-215; Q2KI11 23-215)
- T1 construct: also called huNav1.7-beta1-beta2-beta3; huNav1.7-β1-β2-β3
- Measurement Description: binding FACS, CHO FlpIn
Observed Property: EC50 (nM)
One number for each entry, in nM.

F010301933 (VHH, also called F0103464B09(L11V, S68T, K83R, V89L)) VHH: EVQLVESGGGVVQPGGSLRLSCATTSRAFIRDVFTGWYRRVPGKERELVARIYNGGNTNYADFAKGRFTISRDNAKKMVTLRMSNLRPEDTGLYYCLFSGTINTGREYRSGDYWGQGTLVTVSS: 4.4

So what does the record say about EC50 for F010301875 (VHH, also called F0103464B09(L11V, F62S, S68T, T79Y, R81Q, S82aN, N82bS, K83R, G88A, V89L)) VHH: EVQLVESGGGVVQPGGSLRLSCATTSRAFIRDVFTGWYRRVPGKERELVARIYNGGNTNYADSAKGRFTISRDNAKKMVYLQMNSLRPEDTALYYCLFSGTINTGREYRSGDYWGQGTLVTVSS ?
6.4
